Sourced from PubChem BioAssay (NCATS)

For each record, write down the corresponding activity, negative = inhibition.
Assay: qHTS profiling for inhibitors of Plasmodium falciparum proliferation (AID 504749); note: nearly all actives have a fitted effect of over 60% in size;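 for activity, negative = inhibition: 0% = DMSO vehicle and full inhibition = artemisinin control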
Conditions: P. falciparum in erythrocytes, SYBR Green DNA, 72 h; at 28.7 µM (top of the series); parasite line A
Inconclusive results are not listed.
One number for each entry, in %.

Completed entries (count: 6):
CN1C(=O)C[C@@H](C(=O)N[C@@H](Cc2cnc[nH]2)C(=O)N2CCC[C@H]2C(N)=O)NC1=O :: 13.6
CCN(CC)CCOc1ccccc1OC :: -4.79
O=P(O)(O)OP(=O)(O)OP(=O)(O)O :: -4.84
OC[C@H]1O[C@@H]2O[C@H]3[C@H](O)[C@@H](O)[C@@H](O[C@H]4[C@H](O)[C@@H](O)[C@@H](O[C@H]5[C@H](O)[C@@H](O)[C@@H](O[C@H]6[C@H](O)[C@@H](O)[C@@H](O[C@H]7[C@H](O)[C@@H](O)[C@@H](O[C@H]1[C@H](O)[C@H]2O)O[C@@H]7CO)O[C@@H]6CO)O[C@@H]5CO)O[C@@H]4CO)O[C@@H]3CO :: 6.28
Cc1cc(C(=O)NCCc2ccc(S(=O)(=O)NC(=O)NN3CCCCCC3)cc2)no1 :: 7.09
O=C(CCCCCCCCCCCCC1CCCC1)Nc1ccc(S(=O)(=O)c2ccc(NC(=O)CCCCCCCCCCCCC3CCCC3)cc2)cc1 :: -2.51

Now for another entry.
query: I'd like to know its activity, negative = inhibition. The compound in question is O=C(O)COc1ccc(CCNS(=O)(=O)c2ccccc2)s1
result: 12.4

----------
Test system: DIV30
Assay: qHTS profiling for inhibitors of Plasmodium falciparum proliferation (AID 504749); note: nearly all actives have a fitted effect of over 60% in size
Details: P. falciparum in erythrocytes, SYBR Green DNA, 72 h; series mostly up to 28.7 µM
Results filed as inconclusive are left out. Active and inactive are the calls of the source. The call rests on the fitted dose curve; in most records, active means well fitted inhibition curve with a large enough effect; inconclusive means small, poorly fitted or top-dose-only effect; inactive means flat fitted curve, though single readings scatter.
Measured quantity: outcome

Example entries begin here.
FC(F)(F)C(F)(F)C(F)(F)C(F)(F)C(F)(F)F :: inactive
CCOC(C)OCC :: inactive
CCCCCCOC(=O)c1cccnc1 :: inactive
O=C(CCCN1CCC(C(=O)c2ccc(F)cc2)CC1)c1ccc(F)cc1 :: inactive
O=C1c2ccccc2C(=O)C1c1ccc(Cl)cc1 :: inactive
O=P(O)(O)O :: inactive
CN1C(=O)C[C@@H](C(=O)N[C@@H](Cc2cnc[nH]2)C(=O)N2CCC[C@H]2C(N)=O)NC1=O :: inactive
COc1ccccc1N1CCN(CCCC(=O)c2ccc(F)cc2)CC1 :: inactive
C=C(C)C1CC=C(C)CC1 (stereo not drawn) :: inactive
O=C1CCC(=O)N1CO :: inactive

Working through the 2 compounds below one at a time, give outcome for each.
1. O=C(OCc1ccccc1)c1ccc(O)cc1
2. O=C(O)CCC/C=C\C[C@@H]1[C@@H](/C=C/[C@@H](O)COc2cccc(Cl)c2)[C@H](O)C[C@@H]1O

result:
["inactive", "inactive"]

Each compound below has a reported value. Please supply its outcome.
1. S=C1SCN(Cc2ccccc2)CN1Cc1ccccc1
2. CC(=O)Nc1ccc(OC(C)=O)cc1
3. ClC(Cl)Cl
4. CCCCCCCCCCCC(=O)N(CCO)CCO

result:
inactive
inactive
inactive
inactive

For each of the compounds below, note its outcome.
1. C[Se]CC[C@H](N)C(=O)O
2. CCCCCCCCCC(=O)NO

result:
["inactive", "inactive"]

----------
So I've got a bunch of molecules here, and I need their max response values.
Tested on: KB-3-1
Assay: Cytotoxic Profiling of Annotated Libraries Using Quantitative High-Throughput Screening (AID 1296008); note: % is set by controls: 0 for no effect and ±100 for the full control effect; nearly all actives have a fitted effect of over 60% in size
Conditions: Five cell lines viability, CellTiter-Glo ATP luminescence, 48-72 h; active compounds read low
Inconclusive results are not listed.
One number for each entry, in %.

The cases that follow already have their max response on record.
CCN(CC)C(=O)[C@]1(c2ccccc2)C[C@@H]1CN :: 6.62
C=C[C@]1(C)C[C@@H](OC(=O)CSCCN(CC)CC)[C@]2(C)[C@H](C)CC[C@]3(CCC(=O)[C@H]32)[C@@H](C)[C@@H]1O :: -8.95
C[S+](C)CCC(N)C(=O)O (stereo not given) :: 3.56

Give me max response for each of these molecules, listed below.
1. COc1ccc2nc(NC(=O)Nc3ccccc3)sc2c1
2. CC(=O)Nc1ccc(OC(=O)c2ccccc2O)cc1
3. C=N[C@@H](C(=O)N[C@@H]1C(=O)N2[C@@H]1SC(C)(C)[C@@H]2C(=O)O)c1ccccc1
4. CCN(CC)CCOc1ccc2nc(N(C)C)sc2c1
5. O=C(OCc1ccccc1)c1cccnc1
6. CO[C@H]1C=CO[C@@]2(C)Oc3c(C)c(O)c4c(O)c(cc(O)c4c3C2=O)NC(=O)/C(C)=C\C=C/[C@H](C)[C@H](O)[C@@H](C)[C@@H](O)[C@@H](C)[C@H](OC(C)=O)[C@@H]1C
7. OCCOCCOCCO

result:
1: 36.1; 2: -18; 3: 0.762; 4: -23.9; 5: -9.74; 6: -3.21; 7: -12.6

----------
Assay: qHTS Assay for Identifying Gametocytocidal Compounds (AID 743244);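 note: % is set by controls: 0 for no effect and ±100 for the full control effect; actives lower the fluorescent signal which means gametocytes are killed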
Details: P. falciparum 3D7 stage III-V gametocytes, alamarBlue, 72 h; active compounds read low
Inconclusive results are not listed.
Measured quantity: max response (%)
Numbers only, in %.

Record excerpt, results attached:
CN1c2c(nc(N)[nH]c2=O)NCC1CNc1ccc(C(=O)NC(CCC(=O)O)C(=O)O)cc1 (centres undefined) :: 15.5
CC(CCc1ccc(O)cc1)NCC(O)c1ccc(O)cc1 (centres undefined) :: 16.5
CN1C(=O)C[C@@H](C(=O)N[C@@H](Cc2cnc[nH]2)C(=O)N2CCC[C@H]2C(N)=O)NC1=O :: 5.88
CCCCC[C@H](O)/C=C/[C@H]1[C@H](O)CC(=O)[C@@H]1C/C=C\CCCC(=O)O :: 5.55
CC(=O)N[C@@H](C=O)[C@@H](O)[C@H](O)[C@H](O)CO :: 11.4

List reported max response for each of these compounds:
1. COC(=O)C(CN)c1c[nH]c2ccc(OC)cc12 (centres undefined)
2. Cc1ncc(C[n+]2csc(CCO)c2C)c(N)n1
3. CN[C@@H]1[C@@H](O)[C@@H](O[C@@H]2[C@@H](O)[C@H](O[C@H]3O[C@H](CN)[C@@H](O)[C@H](O)[C@H]3O)[C@@H](N)C[C@H]2NC(=O)C(O)CN)OC[C@]1(C)O (some centres undefined)
4. FC(F)OC(Cl)C(F)(F)F (centres undefined)

result:
1: -6.34; 2: 2.57; 3: 16.8; 4: -3.13

----------
Experiment: MultiTox-Fluor Cytotoxicity Assay - LYMP1-001 - Dead Cells (AID 946);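 note: cells exposed to compound for 16 h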
Conditions: LYMP1-001 lymphoblastoid cells, dead-cell protease fluorescence; series mostly up to 92.2 µM
Inconclusive results are not listed. Active and inactive are the calls of the source. Calls follow the shape of the dose curve; as a rule, active = well fitted cell-killing curve with a large enough effect; inconclusive = small, poorly fitted or top-dose-only effect, or effect the other way; inactive = flat fitted curve, though single readings scatter.
Assign a class; possible classes are TRUE = active, FALSE = inactive

Cc1ccc(S(=O)(=O)O)cc1C :: FALSE
CC[C@H]1OC(=O)[C@H](C)[C@@H](O[C@H]2C[C@@](C)(OC)[C@@H](O)[C@H](C)O2)[C@H](C)[C@@H](O[C@@H]2O[C@H](C)C[C@H](N(C)C)[C@H]2O)[C@](C)(O)C[C@@H](C)CN(C)[C@H](C)[C@@H](O)[C@]1(C)O :: FALSE
C/C=C/C=C/C(=O)O :: FALSE
Nc1ncnc2c1ncn2[C@H]1CC[C@@H](CO)O1 :: FALSE
OB(O)O :: FALSE

query: Recorded test call requested for c1ccc2ccccc2c1
result: FALSE

query: What did this assay record as the result for C=C1C(CCl)(CCl)C2(Cl)C(Cl)C(Cl)C1(Cl)C2(Cl)Cl (stereo unspecified) ?
result: TRUE

query: Call for entry OCc1ccccc1 :
result: FALSE

query: Tell me the recorded outcome of this test for O.O.O.O.O.O.O.O=S(=O)([O-])[O-].[Co+2] .
result: FALSE

query: Answer briefly: the call reported for CC(C)O in this assay.
result: FALSE

query: Name the outcome recorded for C[C@H](CCC(=O)O)[C@H]1CC[C@H]2[C@@H]3CC[C@@H]4C[C@H](O)CC[C@]4(C)[C@H]3C[C@H](O)[C@]12C in the assay.
result: FALSE

----------
System: CP185
Assay: qHTS profiling for inhibitors of Plasmodium falciparum proliferation (AID 504749); note: nearly all actives have a fitted effect of over 60% in size
Conditions: P. falciparum in erythrocytes, SYBR Green DNA, 72 h; series mostly up to 28.7 µM
Results filed as inconclusive are left out. The source made the active and inactive calls. The call rests on the fitted dose curve; in most records, active means well fitted inhibition curve with a large enough effect; inconclusive means small, poorly fitted or top-dose-only effect; inactive means flat fitted curve, though single readings scatter.
Returns: one label drawn from class 1 = active, class 0 = inactive

CC(=O)Oc1cccc(C(=O)O)c1OC(C)=O :: class 0
CC/C=C\C/C=C\C/C=C\C/C=C\C/C=C\CCCC(=O)O :: class 0
COC(=O)CCC[N+](C)(C)C :: class 0
CC(=O)Nc1ccc(OC(=O)c2ccccc2O)cc1 :: class 0
F[Si-2](F)(F)(F)(F)F :: class 0
Cc1ncc(C[n+]2csc(CCOP(=O)(O)O)c2C)c(N)n1 :: class 0
CC[C@H]1OC(=O)[C@H](C)[C@@H](O[C@H]2C[C@@](C)(OC)[C@@H](O)[C@H](C)O2)C(C)[C@@H](O[C@@H]2O[C@H](C)C[C@H](N(C)C)[C@@H]2O)[C@](C)(OC)C[C@@H](C)C(=O)[C@H](C)[C@@H](O)[C@]1(C)O (stereo partly specified) :: class 0
Cc1cc(C)c(NC(=O)C[C@H](CC(=O)O)c2cccc3ccccc23)c(C(=O)N2CCC3(CCCC3)CC2)c1 :: class 0
O=S(=O)(O)CCCS(=O)(=O)O :: class 0
CC(C)=CCC/C(C)=C/CC/C(C)=C/CC/C=C(\C)CC/C=C(\C)CCC=C(C)C :: class 0

query: // outcome(item) with item = O=C(O)c1ccc(OCCn2ccnc2)cc1
result: class 0

query: Record lookup: outcome of this test for CCOC(=O)c1c[nH]c2cc(OCC(C)C)c(OCC(C)C)cc2c1=O ?
result: class 1

query: Outcome? C[C@H]1O[C@@H](O[C@H]2[C@@H](O)C[C@H](O[C@H]3[C@@H](O)C[C@H](O[C@H]4CC[C@@]5(C)[C@H](CC[C@@H]6[C@@H]5C[C@@H](O)[C@]5(C)[C@@H](C7=CC(=O)OC7)CC[C@]65O)C4)O[C@@H]3C)O[C@@H]2C)C[C@H](O)[C@@H]1O
result: class 0
